- assay.target: Syk catalytic domain (aa 356-635 with a C-terminal His-tag) (Homo sapiens, UniProt P43405)
- Construct: His-tag (C); made in house
- assay.details: In vitro Syk kinase activity measured by trFRET, Syk catalytic domain
- Format: biochemical
- condition.details: Syk catalytic domain (aa 356-635), trFRET, 0.001 mM ATP
pIC50: −log10 of the molar value.
outcome.measure: pIC50

Batch: pIC50 for all items listed.
1. COc1ccc(-c2cc3c(ncc4cnn(C)c43)[nH]2)cc1
2. O=C(O)/C=C/c1nc(C2CCCCC2)n2c1cnc1[nH]ccc12
3. COc1ccc2c(c1)c(-c1cc3c(ncc4cnn(C)c43)[nH]1)cn2C(C)C
4. CCc1c(-c2cccc(C(=O)NCCN3CCOCC3)c2)[nH]c2ncc3cnn(C)c3c12
5. CS(=O)(=O)c1ccc(-c2nc(C3CCCN(C(=O)CCO)C3)n3c2cnc2[nH]ccc23)cc1 (stereo not drawn)
6. CCc1c(-c2cnn(C)c2)[nH]c2ncc3cnn(C)c3c12
7. CCc1c[nH]c2ncc3c(-c4ccsc4)nn(C)c3c12
8. COc1ccc(-c2nn(C)c3c2cnc2[nH]cc(Br)c23)cc1

Outgoing:
1. > 7.00
2. 6.00 to 7.00
3. 6.00 to 7.00
4. 5.00 to 6.00
5. 5.00 to 6.00
6. 6.00 to 7.00
7. 6.00 to 7.00
8. > 7.00
